Target: UniProtKB P21730
Sequence (P21730 1-350): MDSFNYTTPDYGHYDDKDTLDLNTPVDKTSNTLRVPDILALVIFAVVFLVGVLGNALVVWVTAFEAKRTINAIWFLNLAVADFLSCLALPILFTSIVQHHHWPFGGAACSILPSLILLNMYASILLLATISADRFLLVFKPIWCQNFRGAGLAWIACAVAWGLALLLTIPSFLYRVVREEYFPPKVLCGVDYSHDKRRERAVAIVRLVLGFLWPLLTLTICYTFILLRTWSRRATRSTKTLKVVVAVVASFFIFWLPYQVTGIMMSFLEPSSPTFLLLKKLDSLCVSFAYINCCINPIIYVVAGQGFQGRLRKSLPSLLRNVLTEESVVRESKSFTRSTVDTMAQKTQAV
Assay: In vitro assay: antagonism of C5a-induced beta-arrestin recruitment (PathHunter) in CHO-K1 C5AR1 beta-arrestin cell line
Settings: antagonistic activity, 1-10 nM C5a agonist, geometric mean where several measurements, read-out: C5aR IC50
reported.metric: IC50 (nM)

Previously resolved entries follow.
COc1nccc(C)c1N1CCC(N2Cc3nn(C)cc3N(Cc3ccccc3C(F)(F)F)C2=O)CC1	76
Cc1cccc(F)c1N1CCC(N2C(=O)N(Cc3ccccc3C(F)(F)F)c3nn(C4CC4)cc3C2C)CC1 (single isomer, unassigned) [Example 309]	11
Cc1cccc(F)c1N1CCC(N2Cc3cn(CC(N)=O)nc3N(Cc3ccccc3C(F)(F)F)C2=O)CC1	103
Cc1cccc(F)c1N1CCC(N2Cc3cn(CCN4CCN(C)CC4)nc3N(Cc3ccccc3C(F)(F)F)C2=O)CC1	120

I. Cc1cccc(F)c1N1CCC(N2Cc3cn(C(C)(C)C#N)nc3N(Cc3ccccc3C(F)(F)F)C2=O)CC1
II. Cc1cccc(F)c1N1CCC(N2Cc3cn(CC(CO)N(C)C)nc3N(Cc3ccccc3C(F)(F)F)C2=O)CC1 (stereo not shown)
Two entries are listed, I and II . Which one carries the higher IC50? State the label of the item chosen. II

----------
Molecular target: C5AR1 (Homo sapiens, UniProt P21730)
Sequence (P21730 1-350): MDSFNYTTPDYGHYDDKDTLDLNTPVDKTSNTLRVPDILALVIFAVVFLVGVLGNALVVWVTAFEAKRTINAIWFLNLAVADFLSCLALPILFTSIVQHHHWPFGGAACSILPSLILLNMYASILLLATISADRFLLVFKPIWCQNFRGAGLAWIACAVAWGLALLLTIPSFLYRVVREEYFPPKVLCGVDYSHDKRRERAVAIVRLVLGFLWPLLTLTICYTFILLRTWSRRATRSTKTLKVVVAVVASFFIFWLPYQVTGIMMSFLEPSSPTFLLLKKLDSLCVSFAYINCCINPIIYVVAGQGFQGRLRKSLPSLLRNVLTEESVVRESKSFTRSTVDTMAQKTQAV
Assay: In vitro assay: antagonism of C5a-induced beta-arrestin recruitment (PathHunter) in CHO-K1 C5AR1 beta-arrestin cell line
Settings: antagonistic activity, 1-10 nM C5a agonist, geometric mean where several measurements, read-out: C5aR IC50
reported.metric: IC50 (nM)

CC1c2nn(C3CC3)cc2N(Cc2ccccc2C(F)(F)F)C(=O)N1C1CCN(c2c(F)cccc2C(F)F)CC1 (single isomer, unassigned) [Example 329]	18

I. COC(=O)Cn1cc2c(n1)CN(C1CCN(c3c(C)cccc3F)CC1)C(=O)N2Cc1ccccc1C(F)(F)F
II. Cc1cccc(F)c1N1CCC(N2Cc3cn(C4CN(C(=O)OC5(C(F)(F)F)COC5)C4)nc3N(Cc3ccccc3C(F)(F)F)C2=O)CC1
III. Cc1cccc(F)c1N1CCC(N2Cc3nn(C4CC4)cc3N(Cc3ncccc3C(F)(F)F)C2=O)CC1
Put the compounds in ascending order of IC50. Thanks in advance for listing the labels in the requested order. III, II, I

P. COc1ccnc(OC)c1N1CCC(N2Cc3cn(C)nc3N(Cc3ccccc3C(F)(F)F)C2=O)CC1
Q. Cc1cccc(F)c1N1CCC(N2Cc3cn(C4CN(C(=O)OC(C)C)C4)nc3N(Cc3ccccc3C(F)(F)F)C2=O)CC1
Given the listed items, does P or Q have the lesser reported IC50? State the label of the item chosen. Q
(Q: 14 nM, P: 125 nM)

----------
Target: C5AR1 (Homo sapiens)
Sequence (P21730 1-350): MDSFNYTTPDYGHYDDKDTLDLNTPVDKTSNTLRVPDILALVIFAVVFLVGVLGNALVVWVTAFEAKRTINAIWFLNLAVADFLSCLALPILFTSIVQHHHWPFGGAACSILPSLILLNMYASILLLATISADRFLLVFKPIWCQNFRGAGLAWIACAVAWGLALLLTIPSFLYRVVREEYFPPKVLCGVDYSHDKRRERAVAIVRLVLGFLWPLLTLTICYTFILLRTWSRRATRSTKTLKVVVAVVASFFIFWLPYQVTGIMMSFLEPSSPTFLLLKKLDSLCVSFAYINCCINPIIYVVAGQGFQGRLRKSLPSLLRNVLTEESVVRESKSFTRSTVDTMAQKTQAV
Test: In vitro assay: antagonism of C5a-induced beta-arrestin recruitment (PathHunter) in CHO-K1 C5AR1 beta-arrestin cell line
Settings: antagonistic activity, 1-10 nM C5a agonist, geometric mean where several measurements, read-out: C5aR IC50
pIC50: −log10 of the molar value.
reported.metric: pIC50

Previously resolved entries follow.
COc1nccc(C)c1N1CCC(N2Cc3nn(C)nc3N(Cc3ncccc3C(F)(F)F)C2=O)CC1	7.49
Cc1cccc(F)c1N1CCC(N2Cc3cn(CC(C)CO)nc3N(Cc3ccccc3C(F)(F)F)C2=O)CC1 (stereo not shown)	7.80

P. Cc1cccc(F)c1N1CCC(N2C(=O)N(Cc3ncccc3C(F)(F)F)c3nn(C)cc3C2C)CC1 (single isomer, unassigned) [Example 355]
Q. Cc1cccc(F)c1N1CCC(N2Cc3cn(C[C@H]4CC(F)(F)CN4C(=O)OC(C)(C)C)nc3N(Cc3ccccc3C(F)(F)F)C2=O)CC1
R. COc1nccc(C)c1N1CCC(N2C(=O)N(Cc3ccccc3C(F)(F)F)c3nn(C)cc3C2C)CC1 (single isomer, unassigned) [Example 332]
S. Cc1cccc(F)c1N1CCC(N2Cc3cn(C4CN(C(=O)C(C)C)C4)nc3N(Cc3ccccc3C(F)(F)F)C2=O)CC1
Put the compounds in ascending order of pIC50. Thanks in advance for listing the labels in the requested order. P, R, S, Q

----------
Target: C5AR1 (Homo sapiens, UniProt P21730)
Sequence (P21730 1-350): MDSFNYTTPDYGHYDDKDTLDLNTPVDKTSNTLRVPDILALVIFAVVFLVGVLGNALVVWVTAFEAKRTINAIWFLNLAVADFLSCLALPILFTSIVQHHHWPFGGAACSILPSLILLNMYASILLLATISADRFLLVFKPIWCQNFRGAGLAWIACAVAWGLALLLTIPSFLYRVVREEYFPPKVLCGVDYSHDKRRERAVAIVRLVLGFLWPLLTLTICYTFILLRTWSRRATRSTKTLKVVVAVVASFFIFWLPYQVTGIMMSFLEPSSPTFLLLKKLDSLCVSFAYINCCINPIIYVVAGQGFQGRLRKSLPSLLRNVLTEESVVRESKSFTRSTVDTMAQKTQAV
Experiment: In vitro assay: antagonism of C5a-induced beta-arrestin recruitment (PathHunter) in CHO-K1 C5AR1 beta-arrestin cell line
Details: antagonistic activity, 1-10 nM C5a agonist, geometric mean where several measurements, read-out: C5aR IC50
Procedure: 5 μl Antagonist at 6-fold end concentration or DMSO control is added to assay medium and subsequently 5 μl 1-10 nM C5a agonist at 6 fold end concentration. Cells are centrifuged for 1 min at 1000 rpm and incubated for 1.5 hour in at 37° C. […] Plates are centrifuged for 1 min at 1000 rpm and incubated for 45 minutes at RT before being measured on a Fluostar Optima, BMG Labtech. IC50 values are calculated from a serial dilution range of antagonist using inhouse software and given in nmol/l. […]
pIC50: −log10 of the molar value.
reported.metric: pIC50

Cc1cccc(F)c1N1CCC(N2Cc3nn(C)cc3N(Cc3ccccc3C3CC3)C2=O)CC1	7.31
Cc1cccc(F)c1N1CCC(N2Cc3cn(C)nc3N(Cc3ccccc3OC3CC3)C2=O)CC1	7.89
Cc1cccc(F)c1N1CCC(N2Cc3cn(CC(C)N)nc3N(Cc3ccccc3C(F)(F)F)C2=O)CC1 (stereo not shown)	6.46

A. COc1nccc(C)c1N1CCC(N2C(=O)N(Cc3ccccc3C(F)(F)F)c3cn(C4CC4)nc3C2C)CC1 (single isomer, unassigned) [Example 297]
B. CNCCn1cc2c(n1)N(Cc1ccccc1C(F)(F)F)C(=O)N(C1CCN(c3c(C)cccc3F)CC1)C2
C. CC1c2cn(C3CC3)nc2N(Cc2ccccc2C(F)(F)F)C(=O)N1C1CCN(c2c(F)cccc2C(F)F)CC1 (single isomer, unassigned) [Example 312]
D. COc1nccc(C(F)(F)F)c1N1CCC(N2C(=O)N(Cc3ccccc3C(F)(F)F)c3nn(C)cc3C2C)CC1 (single isomer, unassigned) [Example 362]
Put the compounds in ascending order of pIC50. Thanks in advance for listing the labels in the requested order. A, B, C, D
(A: 6.49, B: 6.71, C: 7.14, D: 8.05)

Reference source: patent US11608341B2
